Molecular target: CCR4 (Homo sapiens)
Construct: CEM Cells Endogenous Express CCR4; endogenous in cells; host or cells: CEM cells
Experiment: CEM cell chemotaxis (migration) assay to CCL22 (MDC) in HBSS buffer with 0.1% BSA
Format: cell-based
Conditions: CEM cells in HBSS with 0.1% BSA; recombinant human CCL22 0.1 nM; 37° C. 60 minutes
pIC50: −log10 of the molar value.
pIC50 values, listed per item

Example cases with answers are listed next.
molecule=C[C@@H](Nc1nc(N2CCC(C(=O)N3CC[C@H](O)[C@@H](N(C)C)C3)CC2)ncc1Cl)c1ccc(Cl)cc1Cl test_target="CCR4 (Homo sapiens)" metric_name=pIC50 observed_measurement="6.00 to 7.00"
molecule=C[C@H](Nc1nc(N2CCN(C(=O)[C@H]3CCC(=O)N3)CC2)ncc1Cl)c1ccc(Cl)cc1Cl test_target="CCR4 (Homo sapiens)" metric_name=pIC50 observed_measurement="< 6.00"
molecule=Cc1nc(N2CCN(C(=O)[C@H]3CCC(=O)N3)CC2)nc(N[C@H](C)c2cc(F)c(Cl)cc2Cl)c1Cl test_target="CCR4 (Homo sapiens)" metric_name=pIC50 observed_measurement="> 7.00"

Consider the additional compound presented here.
Exam item: Name the recorded pIC50 for "C[C@@H](Nc1nc(C2=CCN([C@H]3CCCN(CCC(N)=O)C3)CC2)ncc1Cl)c1ccc(Cl)cc1Cl" .
Marked response: > 7.00

###

IC50 values, listed per item
Target: CCR4 (Homo sapiens, UniProt P51679)
Construct: CEM Cells Endogenous Express CCR4; endogenous in cells; host or cells: CEM cells
Sequence (P51679 1-360): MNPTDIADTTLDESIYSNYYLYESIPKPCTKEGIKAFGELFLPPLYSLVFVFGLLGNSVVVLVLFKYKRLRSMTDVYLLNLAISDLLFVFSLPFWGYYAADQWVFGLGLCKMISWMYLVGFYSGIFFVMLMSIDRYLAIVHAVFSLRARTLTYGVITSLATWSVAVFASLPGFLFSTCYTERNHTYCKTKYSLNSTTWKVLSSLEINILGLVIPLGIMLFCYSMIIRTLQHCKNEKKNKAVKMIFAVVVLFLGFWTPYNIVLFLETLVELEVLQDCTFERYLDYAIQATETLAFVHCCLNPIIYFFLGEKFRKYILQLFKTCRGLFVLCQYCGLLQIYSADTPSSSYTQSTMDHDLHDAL
Experiment: CEM cell chemotaxis (migration) assay to CCL22 (MDC) in HBSS buffer with 0.1% BSA
Type: cell-based
Conditions: CEM cells in HBSS with 0.1% BSA; recombinant human CCL22 0.1 nM; 37° C. 60 minutes

Example cases with answers are listed next.
compound=C[C@@H]1CN(c2ncc(Cl)c(N[C@H](C)c3ccc(Cl)cc3Cl)n2)CCN1C(=O)N1CCNCC1 observed_measurement="> 1000 nM"
compound=C[C@@H](Nc1nc(N2CCN(C(=O)C[C@H]3CCCN3)CC2)ncc1Cl)c1ccc(Cl)cc1Cl observed_measurement="< 100 nM"
compound=C[C@@H](Nc1nc(N2CCN(C(=O)[C@H]3CCCN3)CC2)ncc1C(F)(F)F)c1ccc(Cl)cc1Cl observed_measurement="< 100 nM"
compound="C[C@@H](Nc1nc(N2CCN(C3CN[C@H](C(=O)O)C3)CC2)ncc1Cl)c1ccc(Cl)cc1Cl (some centres unmarked)" observed_measurement="> 1000 nM"
compound=C[C@@H](Nc1nc(N2CCN(C(=O)[C@H]3C[C@H](O)CN3)CC2)ncc1Cl)c1ccc(Cl)cc1Cl observed_measurement="< 100 nM"

Exam item: Name the recorded IC50 for "C[C@@H](Nc1nc(N2CCN(C(=O)[C@H]3COCCN3)CC2)ncc1Cl)c1ccc(Cl)cc1Cl" .
Marked response: < 100 nM

Exam item: Name the recorded IC50 for "C[C@@H](Nc1nc(N2CCN(C(=O)[C@@H]3NC(=O)[C@@H]4C[C@@H]43)CC2)ncc1Cl)c1ccc(Cl)cc1Cl" .
Marked response: < 100 nM

Exam item: Name the recorded IC50 for "C[C@@H](Nc1nc(N2CCN(C(=O)[C@H]3CCC(=O)N3)CC2)ncc1Cl)c1cc(Cl)cc(Cl)c1" .
Marked response: > 1000 nM

###

Target: CCR4 (Homo sapiens)
Construct: CEM Cells Endogenous Express CCR4; endogenous in cells; host or cells: CEM cells
Sequence (P51679 1-360): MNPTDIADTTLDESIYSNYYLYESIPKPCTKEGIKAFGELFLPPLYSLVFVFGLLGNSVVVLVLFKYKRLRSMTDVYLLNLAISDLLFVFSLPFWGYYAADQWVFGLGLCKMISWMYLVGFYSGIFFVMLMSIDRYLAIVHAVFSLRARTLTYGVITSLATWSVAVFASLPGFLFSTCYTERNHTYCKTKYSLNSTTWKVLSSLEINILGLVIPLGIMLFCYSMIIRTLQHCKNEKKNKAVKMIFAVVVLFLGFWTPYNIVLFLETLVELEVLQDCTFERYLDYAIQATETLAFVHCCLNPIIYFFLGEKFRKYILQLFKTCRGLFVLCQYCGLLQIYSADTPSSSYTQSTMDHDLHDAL
Assay: CEM cell chemotaxis (migration) assay to CCL22 (MDC) in HBSS buffer with 0.1% BSA
Format: cell-based
Conditions: CEM cells in HBSS with 0.1% BSA; recombinant human CCL22 0.1 nM; 37° C. 60 minutes
IC50 values, listed per item

molecule="C[C@@H](Nc1nc(N2CCN(C(=O)[C@H]3CCNC3)CC2)ncc1Cl)c1ccc(Cl)cc1Cl [Example 1.150]" observed_measurement="< 100 nM"
molecule="C[C@@H](Nc1nc(N2CCN(C(=O)[C@H]3CCCN3)C(C)(C)C2)ncc1Cl)c1ccc(Cl)cc1Cl [Example 1.030]" observed_measurement="> 1000 nM"
molecule="CC(Nc1nc(N2CCN(C(=O)[C@H]3CCC(=O)N3)CC2)ncc1Cl)c1cc(F)c(Cl)cc1Cl (stereo partly drawn) [Example 1.082]" observed_measurement="< 100 nM"
molecule="C[C@@H](Nc1nc(N2CCN(C(=O)[C@H]3CCCN3C3CC(C)(C(=O)O)C3)CC2)ncc1Cl)c1ccc(Cl)cc1Cl (stereo partly drawn) [Example 1.152]" observed_measurement="100 to 1000 nM"
molecule="C[C@@H](Nc1nc(N2CCN(C(=O)C3CCN(C)C3)CC2)ncc1Cl)c1ccc(Cl)cc1Cl (stereo partly drawn) [Example 1.022]" observed_measurement="< 100 nM"

Exam item: Name the recorded IC50 for CC(C)N(C(=O)C1CCNC1)C1CCN(c2ncc(Cl)c(N[C@H](C)c3ccc(Cl)cc3Cl)n2)CC1 (stereo partly drawn) [Example 1.062] .
Marked response: > 1000 nM

Exam item: Name the recorded IC50 for C[C@@H](Nc1nc(N2CCC(C3CCCN(CCC(=O)O)C3)CC2)ncc1Cl)c1ccc(Cl)cc1Cl (stereo partly drawn) [Example 1.035] .
Marked response: < 100 nM

Exam item: Name the recorded IC50 for C[C@@H](Nc1nc(N2CCC(NC(=O)[C@H]3CCN(C)C3)CC2)ncc1Cl)c1ccc(Cl)cc1Cl [Example 1.060] .
Marked response: < 100 nM

Exam item: Name the recorded IC50 for C[C@@H](Nc1nc(N2CCN(C(=O)[C@H]3CCN(C(N)=O)C3)CC2)ncc1Cl)c1ccc(Cl)cc1Cl [Example 1.134] .
Marked response: < 100 nM

Exam item: Name the recorded IC50 for C[C@@H](Nc1nc(N2CC[C@H](NC(=O)[C@H]3CCCN3)C2)ncc1Cl)c1ccc(Cl)cc1Cl [Example 1.029] .
Marked response: < 100 nM

Exam item: Name the recorded IC50 for C[C@@H](Nc1nc(N2CCN(C(=O)[C@H]3CCCN3CCC(=O)O)CC2)ncc1Cl)c1ccc(Cl)cc1Cl [Example 1.048] .
Marked response: < 100 nM

Exam item: Name the recorded IC50 for C[C@@H](Nc1nc(N2CCN(C(=O)[C@H]3CCC(=O)N3)CC2)ncc1Cl)c1ccc(Cl)cc1Cl [Example 1.148] .
Marked response: < 100 nM

###

Target: CCR4 (Homo sapiens, UniProt P51679)
Construct: CEM Cells Endogenous Express CCR4; endogenous in cells; host or cells: CEM cells
Sequence (P51679 1-360): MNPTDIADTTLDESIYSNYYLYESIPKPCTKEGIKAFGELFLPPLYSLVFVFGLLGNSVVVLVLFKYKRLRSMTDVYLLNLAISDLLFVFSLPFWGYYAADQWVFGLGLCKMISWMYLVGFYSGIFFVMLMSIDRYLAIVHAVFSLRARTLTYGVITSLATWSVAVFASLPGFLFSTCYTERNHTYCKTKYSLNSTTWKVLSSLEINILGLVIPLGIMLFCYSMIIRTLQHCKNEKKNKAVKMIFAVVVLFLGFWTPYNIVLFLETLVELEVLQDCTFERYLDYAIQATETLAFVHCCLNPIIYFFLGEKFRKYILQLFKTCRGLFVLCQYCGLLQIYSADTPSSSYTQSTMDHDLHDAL
Test: CEM cell chemotaxis (migration) assay to CCL22 (MDC) in 100% Fetal Bovine Serum (FBS)
Assay type: cell-based
Conditions: CEM cells in 100% FBS with 1% HEPEs; recombinant human CCL22 0.1 nM; 37° C. 60 minutes
pIC50: −log10 of the molar value.
metric.name: pIC50

Example cases with answers are listed next.
molecule=C[C@@H](Nc1nc(N2CCN(C(=O)[C@@H]3CCC(=O)N3)CC2)ncc1Cl)c1ccc(Cl)cc1Cl observed_measurement="6.00 to 7.00"
molecule=C[C@@H](Nc1nc(N2CC[C@H](NC(=O)[C@H]3CCN(C)C3)[C@@H](O)C2)ncc1Cl)c1ccc(Cl)cc1Cl observed_measurement="> 7.00"
molecule=C[C@@H](Nc1nc(N2CCN(C(=O)C(C)(C)N)CC2)ncc1Cl)c1ccc(Cl)cc1Cl observed_measurement="> 7.00"
molecule=C[C@@H](Nc1nc(N2CCN(C(=O)[C@H]3CCN(C)C3)CC2)ncc1C(C)(C)O)c1ccc(Cl)cc1Cl observed_measurement="6.00 to 7.00"
molecule=C[C@@H](Nc1nc(N2CCN(C(=O)[C@H]3CCCN3)CC2)ncc1C(F)(F)F)c1ccc(Cl)cc1Cl observed_measurement="> 7.00"
molecule=C[C@@H](Nc1nc(N2CCC(NC(=O)C3CCOCC3)CC2)ncc1Cl)c1ccc(Cl)cc1Cl observed_measurement="< 6.00"
molecule=COc1cnc(N2CCC(N(C)C(=O)[C@H]3CCCN3)CC2)nc1N[C@H](C)c1ccc(Cl)cc1Cl observed_measurement="> 7.00"
molecule=C[C@@H](Nc1nc(N2CCN(C(=O)[C@H]3CCS(=O)(=O)N3)CC2)ncc1Cl)c1ccc(Cl)cc1Cl observed_measurement="> 7.00"
molecule=C[C@@H](Nc1nc(N2CCC(O[C@H]3CCN(CCO)C3)CC2)ncc1Cl)c1ccc(Cl)cc1Cl observed_measurement="> 7.00"
molecule=C[C@@H](Nc1nc(N2CCN(C(=O)[C@H]3CCCNC3)CC2)ncc1Cl)c1ccc(Cl)cc1Cl observed_measurement="> 7.00"

Exam item: Name the recorded pIC50 for "COc1cnc(N2CCN(C(=O)C[C@H]3CCCN3)CC2)nc1N[C@H](C)c1ccc(Cl)cc1Cl" .
Marked response: > 7.00

Exam item: Name the recorded pIC50 for "C[C@@H](Nc1nc(N2CCN(C(=O)[C@@H]3CCNC3)CC2)ncc1Cl)c1ccc(Cl)cc1Cl" .
Marked response: > 7.00
